I'd appreciate it if you could supply phosphorylation enrichment values for the items below.
# system: FGFR1 (UniProt P11362)
# Sequence (P11362 whole entry, looked up): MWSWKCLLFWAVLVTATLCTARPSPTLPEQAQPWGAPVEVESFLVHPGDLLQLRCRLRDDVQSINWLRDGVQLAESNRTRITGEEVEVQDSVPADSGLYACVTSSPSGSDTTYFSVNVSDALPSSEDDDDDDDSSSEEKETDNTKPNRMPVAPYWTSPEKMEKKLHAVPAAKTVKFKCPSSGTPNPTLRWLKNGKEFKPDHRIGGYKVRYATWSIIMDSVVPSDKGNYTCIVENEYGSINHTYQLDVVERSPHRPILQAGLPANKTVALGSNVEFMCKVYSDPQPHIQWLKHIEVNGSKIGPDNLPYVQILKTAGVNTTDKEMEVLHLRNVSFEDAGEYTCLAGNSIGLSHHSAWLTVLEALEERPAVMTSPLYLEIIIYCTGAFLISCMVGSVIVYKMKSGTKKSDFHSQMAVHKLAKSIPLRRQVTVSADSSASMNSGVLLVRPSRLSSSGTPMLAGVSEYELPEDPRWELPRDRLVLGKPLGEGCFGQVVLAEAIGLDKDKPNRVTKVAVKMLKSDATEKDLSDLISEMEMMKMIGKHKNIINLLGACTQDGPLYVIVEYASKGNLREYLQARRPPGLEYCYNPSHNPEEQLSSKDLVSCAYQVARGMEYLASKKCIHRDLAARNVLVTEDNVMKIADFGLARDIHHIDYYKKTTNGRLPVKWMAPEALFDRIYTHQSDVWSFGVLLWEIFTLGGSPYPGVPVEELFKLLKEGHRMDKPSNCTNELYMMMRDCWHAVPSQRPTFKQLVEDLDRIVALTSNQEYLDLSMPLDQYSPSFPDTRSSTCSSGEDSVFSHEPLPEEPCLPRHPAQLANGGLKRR
# procedureDetails: phosphorylation enrichment, bacterial display (enrichment ratio); higher = better substrate or ligand; peptides without Tyr show the background;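 note: 11-residue human phosphosite peptides and single-mutation variants displayed on the E. coli surface, counted by deep sequencing, each peptide's frequency after selection divided by its frequency in the unselected input library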;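 note: frequency after pTyr selection over input frequency; kinase dosed for 20-30% of maximal phosphorylation in three min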

Incoming: I'd like to know its phosphorylation enrichment. The sequence in question is EDSEFYRAFEE [CASQ2_Y179_K180R_YF]
Outgoing: 0.473

Incoming: Name the reported phosphorylation enrichment value associated with the sequence PLKALYLQQRP [ATM_Y2969]
Outgoing: 0.774

Incoming: If you can, please state the reported phosphorylation enrichment value of CTTIHYNYKCN [TP53_Y234_M237K] .
Outgoing: 0.526

Incoming: Request the reported phosphorylation enrichment associated with LGSVVYAHSKE [KCNQ2_Y226]
Outgoing: 0.445

Incoming: Consider the sequence ELTAKYLNYYR [P3H4_Y181_Q186R] and give its measured phosphorylation enrichment.
Outgoing: 0.498

Incoming: What value of phosphorylation enrichment has been recorded for this entry: ISSLLYELLEE [TRPC6_Y896_R895L]
Outgoing: 0.953

Incoming: Entry DLLNSYTENEG [HSPA4L_Y600_I601T] : reported phosphorylation enrichment = ?
Outgoing: 0.578

Incoming: Could you tell me which phosphorylation enrichment is on file for FRPHLYGTPSR [ADGRE2_Y670_S665F] ?
Outgoing: 0.747

Incoming: Given the entry YSGDYYRIQGR [DDR2_Y741] , report its measured phosphorylation enrichment.
Outgoing: 12.1

Incoming: What does the data say about its phosphorylation enrichment? Entry: LNPVVYTLRNA [OR4C12_Y285]
Outgoing: 0.593

Incoming: Look up phosphorylation enrichment: PPAPRCHHSAV [LZTR1_Y119_Y119C]
Outgoing: 0.839

Incoming: Which phosphorylation enrichment value belongs to RYVTRHIYNRE [HLA-DQB1_Y62_Y62H] ?
Outgoing: 0.291

Incoming: # input sequence: RGKEPYTKKAL [TTC21B_Y160] ; wanted: its phosphorylation enrichment
Outgoing: 0.568

Incoming: Find the recorded phosphorylation enrichment belonging to YTHSDYQYSQR [PKP2_Y166] and report it.
Outgoing: 0.467

Incoming: Could you share which phosphorylation enrichment value was measured for KKRSVYIKVLF [CC2D2A_Y683_L684I] ?
Outgoing: 0.457

Incoming: What does the record list as phosphorylation enrichment for ANSPVYVPTTR [GATA6_Y188_S184N] ?
Outgoing: 0.419

Incoming: Consider the sequence LEFGDCHPLKP [VPS35L_Y32_Y32C] and give its measured phosphorylation enrichment.
Outgoing: 0.763

Incoming: GET /values?readout=phosphorylation enrichment&item= TEALYYTDDTA [ADPRS_Y75]
Outgoing: 3.91

Incoming: GET /values?readout=phosphorylation enrichment&item= AAGGRYDGLLG [HARS2_Y364_V368L]
Outgoing: 0.457

Incoming: phosphorylation enrichment for DGTGRYLCNAC [GATA5_Y208_H207R] ?
Outgoing: 0.475

Incoming: Given LLINKYGLSDH [SCP2_Y151_A155D] , state its recorded phosphorylation enrichment.
Outgoing: 0.546

Incoming: What measured phosphorylation enrichment goes with NIRKKYFRAIL [CHD7_Y1217_Q1214R_YF] ?
Outgoing: 0.48

Incoming: What measured phosphorylation enrichment goes with SYCYRYRCAPR [SUMF1_Y344_A348P] ?
Outgoing: 0.511

Incoming: For PQEVMYAQLDH [KIR3DL2_Y398_T397M] , what is its reported phosphorylation enrichment?
Outgoing: 2.69

Incoming: Which phosphorylation enrichment value is on record for NTGDYCDLYGG [PTPN11_Y63_Y63C] ?
Outgoing: 7.05

Incoming: Which phosphorylation enrichment value belongs to STSFDYCRVPM [BST2_Y8_YF] ?
Outgoing: 5.41

Incoming: What measured phosphorylation enrichment goes with PDDPDYSLVDD [PSTPIP2_Y323_N322D] ?
Outgoing: 0.568

Incoming: Field request: phosphorylation enrichment | item: TSKLSYLDPRI [TOP1_Y723_N722S]
Outgoing: 0.611

Incoming: Which phosphorylation enrichment value belongs to DLITAYRAHGF [PDHA1_Y118_H113D] ?
Outgoing: 0.525

Data provenance: the supplement of paper PMC10065799
